Hi, quick share: literature pKi data for UniProt:O60502, several sources combined.
pKi: −log10 of the molar value.
recorded.endpoint: pKi

As a guide, the following entries are already answered.
1. CCNC(=O)[C@@H]1[C@@H](O)[C@@H](O)[C@H](O)[C@@H](CO)N1CCCc1ccccc1 = 5.60
2. C[C@H](O)[C@H]1O[C@@H]2SC(N(C)C)=N[C@@H]2[C@@H](F)[C@@H]1O = 7.80
3. CNC(=O)C[C@@H]1[C@H](O)[C@H](O)[C@@H](CO)N1CCCCC(C)C = 7.39
4. CCCNC(=O)C[C@@H]1[C@H](O)[C@H](O)[C@@H](CO)N1CCCCc1ccccc1 = 7.14

I = O[C@H]1[C@H](O)[C@@H](C(F)F)C[C@@H]2OC(N3CCC3)=N[C@H]12
II = CC(=O)Nc1ncc(CN2CC/C(=C/c3ccc(F)nc3)C[C@H]2C)s1
III = OC[C@H]1O[C@@H]2SC(NCCC3CC3)=N[C@@H]2[C@@H](O)[C@@H]1O
IV = O[C@H]1[C@@H](F)[C@H]2N=C(N3CCC3)O[C@H]2C[C@@H]1C(F)F
Sequence the entries by pKi, beginning with the highest number. To answer, arrange all of the labels according to the requested order.
I, III, IV, II
(I: 9.15, III: 8.36, IV: 7.69, II: 6.66)

====

Hi, quick share: literature Ki data for Protein O-GlcNAcase (Homo sapiens), several sources combined.
recorded.endpoint: Ki (nM)

1) CCNC1=N[C@@H]2[C@@H](O)[C@H](O)[C@@H](CO)C[C@@H]2O1 = 0.6
2) CC(=O)NC[C@@H]1[C@@H](O)[C@H](O)[C@@H](CO)N1CCCCc1ccccc1 = 172
3) CCCN(C)C1=N[C@@H]2[C@@H](O)[C@H](O)[C@@H](CO)O[C@@H]2S1 = 15
4) CCNC(=O)NC1=N[C@@H]2[C@@H](O)[C@H](O)[C@@H](CO)O[C@@H]2S1 = 22
5) O[C@H]1[C@H](F)[C@H]2N=C(N3CCC3)S[C@H]2O[C@@H]1[C@@H](O)C(F)(F)F = 13

P = CCCCCCN1[C@H](CC(=O)NC)[C@H](O)[C@H](O)[C@H]1CO
Q = CC(=O)N[C@H]1CN[C@@H](CO)[C@@H]1O
R = CCCCN1C[C@H](NC(C)=O)[C@@H](O)[C@@H]1CO
S = CNC(=O)[C@@H]1[C@@H](O)[C@@H](O)[C@H](O)[C@@H](CO)N1CCCc1ccccc1
Please put the entries in order of rising Ki. To answer, arrange all of the labels according to the requested order.
P, S, Q, R

A = CN(C)C1=N[C@@H]2[C@@H](O)[C@H](O)[C@@H](C(C)(C)O)C[C@@H]2O1
B = OC[C@H]1C[C@@H]2OC(N3CCC3)=N[C@@H]2[C@H](F)[C@@H]1O
Returns: the argument ( A or B ) having the larger Ki. Please respond with the label that marks your chosen entry.
A

a = CNC1=N[C@@H]2[C@H](F)[C@H](O)[C@@H](CO)C[C@@H]2O1
b = CC(=O)NC[C@@H]1[C@@H](O)[C@H](O)[C@@H](CO)N1CCC(c1ccccc1)c1ccccc1
c = CCNC1=N[C@H]2[C@@H](S1)S[C@H](C(F)F)[C@@H](O)[C@@H]2O
d = CC(=O)N[C@H]1CN(CCCCc2ccccc2)[C@H](CO)[C@@H](O)[C@@H]1O
Sequence the entries by Ki, beginning with the highest number. To answer, arrange all of the labels according to the requested order.
d, b, c, a
(d: 2580 nM, b: 41 nM, c: 22 nM, a: 8.6 nM)

a = OC[C@H]1O[C@@H]2SC(C(F)F)=N[C@@H]2[C@@H](O)[C@@H]1O
b = CN(C)C1=N[C@H]2[C@H](O)[C@@H](O)[C@H](CO)C[C@H]2S1
Returns: the argument ( a or b ) having the larger Ki. Please respond with the label that marks your chosen entry.
a
(a: 7700 nM, b: 484 nM)

====

Hi, quick share: literature Ki data for Protein O-GlcNAcase (Homo sapiens, UniProt O60502), several sources combined.
recorded.endpoint: Ki (nM)

a = CNC(=O)[C@@H]1[C@@H](O)[C@@H](O)[C@H](O)[C@@H](CO)N1CCCc1ccc(-c2ccccc2)cc1
b = C[C@@H](O)[C@H]1C[C@@H]2SC(N(C)C)=N[C@@H]2[C@@H](O)[C@@H]1O
c = CCNC1=N[C@H]2[C@@H](S1)S[C@H](CO)[C@@H](O)[C@@H]2O
d = CNC1=N[C@@H]2[C@H](F)[C@H](O)[C@@H](C(C)(C)O)O[C@@H]2S1
Hi! Can you put these in order of Ki, lowest number first? To answer, arrange all of the labels according to the requested order.
c, a, b, d

====

pKi: −log10 of the molar value.
Hi, quick share: literature pKi data for Protein O-GlcNAcase (Homo sapiens), several sources combined.
recorded.endpoint: pKi

1. CN(C)C1=N[C@@H]2[C@@H](F)[C@H](O)[C@@H]([C@@H](O)C(F)(F)F)O[C@@H]2S1 = 8.02

1 = CC[C@H]1O[C@@H]2SC(NC)=N[C@@H]2[C@@H](F)[C@@H]1O
2 = CC(=O)Nc1ncc(CN2CC/C(=C\c3ccc(F)nc3)C[C@@H]2C)s1
3 = C[C@H](O)[C@H]1C[C@@H]2SC(N(C)C)=N[C@@H]2[C@@H](O)[C@@H]1O
4 = CCNC(=O)C[C@@H]1[C@@H](O)[C@H](O)[C@@H](CO)N1CCC(c1ccccc1)c1ccccc1
5 = CC(=O)Nc1ncc(CN2CC/C(=C/c3ccc(F)nc3)C[C@@H]2C)s1
Sequence the entries by pKi, beginning with the highest number. To answer, arrange all of the labels according to the requested order.
3, 5, 2, 4, 1
(3: 9.85, 5: 9.41, 2: 7.93, 4: 7.19, 1: 6.81)

====

Hi, quick share: literature Ki data for UniProtKB O60502, several sources combined.
recorded.endpoint: Ki (µM)

As a guide, the following entries are already answered.
1) CNC1=N[C@H]2[C@@H](S1)S[C@H](CO)[C@@H](O)[C@@H]2O = 0.00011
2) CNC(=O)C[C@@H]1[C@H](O)[C@H](O)[C@@H](CO)N1CCCc1ccccc1 = 0.011
3) CC(=O)N[C@H]1CN(CCCc2ccccc2)[C@@H](CO)[C@@H]1O = 16.5
4) CCNC1=N[C@@H]2C[C@H](O)[C@@H]([C@H](C)O)O[C@@H]2S1 = 0.026
5) CCNC1=N[C@@H]2[C@H](F)[C@H](O)[C@@H]([C@@H](C)O)O[C@@H]2S1 = 0.266
6) CCNC1=N[C@@H]2[C@@H](F)[C@H](O)[C@@H]([C@H](C)O)O[C@@H]2S1 = 0.012

1 = CCNC(=S)N[C@H]1CN2/C(=N/Cc3ccccc3)SC[C@@H]2[C@@H](O)[C@@H]1O
2 = OC[C@H]1O[C@@H]2SC(NCC3CC3)=N[C@@H]2[C@@H](O)[C@@H]1O
I'm curious whether 1 or 2 has the smaller Ki number. Which is it? Please respond with the label that marks your chosen entry.
2
(2: 0.015 µM, 1: 1.06 µM)
